In this section, each of the binders is paired with its reported pKd.
targetEntity: T1, human recombinant CD117 (c-Kit) from Sino Biological (Catalog No. 11996-H08H) (human, UniProt P10721 26-524)
T1 construct: also called soluble antigen
T1 sequence (P10721 26-524 limits assumed): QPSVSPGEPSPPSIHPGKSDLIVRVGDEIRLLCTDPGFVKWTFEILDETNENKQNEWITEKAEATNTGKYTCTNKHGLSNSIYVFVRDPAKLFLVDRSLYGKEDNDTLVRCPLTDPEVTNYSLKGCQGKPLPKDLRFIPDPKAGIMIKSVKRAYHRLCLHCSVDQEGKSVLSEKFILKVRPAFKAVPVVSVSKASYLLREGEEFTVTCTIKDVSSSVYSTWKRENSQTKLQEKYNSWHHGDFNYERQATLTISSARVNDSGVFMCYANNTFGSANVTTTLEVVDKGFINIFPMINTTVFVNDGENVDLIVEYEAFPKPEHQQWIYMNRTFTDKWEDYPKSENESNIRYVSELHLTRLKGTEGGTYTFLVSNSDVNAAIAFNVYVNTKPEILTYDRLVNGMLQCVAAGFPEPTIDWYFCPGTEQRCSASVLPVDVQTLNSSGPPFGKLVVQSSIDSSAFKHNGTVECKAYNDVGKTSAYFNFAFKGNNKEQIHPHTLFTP
protocolNotes: BLI Octet, IgG on anti-human Fc sensor, soluble CD117, 1:1 fit
// pKd: -log10(molar conc.)

HC5 LC5 (antibody, V domains shown, IgG; also called VH5/VL5) VH: EVQLVQSGAEVKKPGESLKISCKGSGYTFTSYNMHWVRQMPGKGLEWMGVIYSGNADTSYNQKFKGQVTISADKSISTAYLQWSSLKASDTAMYYCARERDTRFGNWGQGTLVTVSA VL: DIQMTQSPSSLSASVGDRVTITCRASESVDIYGNAFMHWYQQKPGKAPKLLIYLASNLESGVPSRFSGSGSGTDFTLTISSLQPEDFATYYCQQANEEPYTFGGGTKLEIK    7.53
HC3 LC2 (antibody, V domains shown, IgG; also called VH3/VL2) VH: QVQLVQSGAEVRKPGASVKLSCKASGYTFTSYNMHWVRQAPGQGLEWMGVIYSGNGDTSYNQKFKGRVTLTRDTSTSTVYMELSSLRSEDTAVYYCARERDTRFGNWGQGTLVTVSA VL: DIVMTQSPSTLSASVGDRVTITCRASESVDIYGNSFMHWYQQKPGKAPKLLIYLASNLESGVPSRFSGSGSGTEFTLTISSLQPDDFATYYCQQNNEDPYTFGQGTKLEIK    8.51
HC5 LC2 (antibody, V domains shown, IgG; also called VH5/VL2) VH: EVQLVQSGAEVKKPGESLKISCKGSGYTFTSYNMHWVRQMPGKGLEWMGVIYSGNADTSYNQKFKGQVTISADKSISTAYLQWSSLKASDTAMYYCARERDTRFGNWGQGTLVTVSA VL: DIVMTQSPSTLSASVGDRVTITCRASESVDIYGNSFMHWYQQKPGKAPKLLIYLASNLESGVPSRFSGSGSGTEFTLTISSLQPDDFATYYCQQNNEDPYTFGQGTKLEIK    8.44
HC2 LC3 (antibody, V domains shown, IgG; also called VH2/VL3) VH: QVQLVESGAEVKKPGASVKLSCKASGYTFTSYNMHWVRQAPGQRLEWMGVIYSGNGDTSYNQKFKGRVTITVDKSASTAYMELSSLRSEDTAVYYCARERDTRFGNWGQGTLVTVSA VL: DIVMTQSPSTLSASVGDRVTITCRASESVDIYGSSFMHWYQQKPGQPPKLLIYLASNLESGVPSRFSGSGSGTEFTLTISSLEADDVATYYCQQNNEDPYTFGGGTKLEIK    8.10

Asked: For the binder Liskamm (antibody, V domains shown, IgG; also called VH5/VL1; HC5 LC1) VH: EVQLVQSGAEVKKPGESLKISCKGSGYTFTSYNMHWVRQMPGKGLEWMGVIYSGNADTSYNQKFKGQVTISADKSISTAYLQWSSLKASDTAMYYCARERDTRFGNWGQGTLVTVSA VL: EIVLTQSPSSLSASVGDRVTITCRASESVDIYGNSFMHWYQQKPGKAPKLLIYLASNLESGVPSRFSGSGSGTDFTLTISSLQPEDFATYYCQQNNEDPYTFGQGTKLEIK , report pKd.
Given back: 8.72
